Target: Protein translocase subunit SecA (Escherichia coli (strain K12)) (UniProt P10408)
Sequence (P10408 whole entry): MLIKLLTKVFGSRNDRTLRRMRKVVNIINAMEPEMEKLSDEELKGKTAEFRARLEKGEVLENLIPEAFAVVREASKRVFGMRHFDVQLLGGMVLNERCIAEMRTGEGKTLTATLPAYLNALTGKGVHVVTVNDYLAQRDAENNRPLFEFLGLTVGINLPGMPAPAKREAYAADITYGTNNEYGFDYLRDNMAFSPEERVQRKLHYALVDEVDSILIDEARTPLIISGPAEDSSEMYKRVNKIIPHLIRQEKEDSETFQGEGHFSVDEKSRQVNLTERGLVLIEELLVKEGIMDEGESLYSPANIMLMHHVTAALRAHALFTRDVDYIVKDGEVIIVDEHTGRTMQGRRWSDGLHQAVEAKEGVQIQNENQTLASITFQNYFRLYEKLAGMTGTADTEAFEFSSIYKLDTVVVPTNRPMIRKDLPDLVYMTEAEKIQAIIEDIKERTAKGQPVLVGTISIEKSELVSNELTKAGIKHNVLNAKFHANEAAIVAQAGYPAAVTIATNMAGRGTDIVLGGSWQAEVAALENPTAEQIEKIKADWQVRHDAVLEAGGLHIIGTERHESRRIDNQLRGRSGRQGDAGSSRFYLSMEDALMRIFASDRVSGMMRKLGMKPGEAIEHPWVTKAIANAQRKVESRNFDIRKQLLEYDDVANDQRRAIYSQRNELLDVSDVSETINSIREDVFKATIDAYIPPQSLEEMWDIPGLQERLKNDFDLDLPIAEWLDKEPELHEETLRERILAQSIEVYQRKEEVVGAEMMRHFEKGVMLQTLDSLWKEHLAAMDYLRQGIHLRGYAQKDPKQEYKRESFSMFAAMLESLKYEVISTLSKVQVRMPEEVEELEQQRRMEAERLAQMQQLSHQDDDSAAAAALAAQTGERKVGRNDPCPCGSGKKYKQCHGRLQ
Assay: Assay to Identify E. coli SecA ATPase Inhibitors
Assay type: functional
Design: scale not given: direction of the effect not stated beside the values
Settings: 30 µM
Entries with a potency or affinity are not part of this list.
readout: Percent Effect (%)
Write the number in % without appending the unit.

# input Return value of Percent Effect for input COCCC(=O)N1CCC(c2noc3nc(C)cc(C(F)(F)F)c23)CC1 , no commentary.
# output -0.633

# input Give Percent Effect for COc1c(CNC2CCN(C(=O)C3CC3)CC2)c(C(C)C)nn1C
# output -4.71

# input Recall and state the measured Percent Effect for CCS(=O)(=O)N1CCC[C@]2(C(=O)N(C)C)CN(c3ccccn3)C[C@@H]2C1 .
# output -6.08

# input Input Cc1nn(C)c(C)c1CC(=O)N1CCC(N(C)c2cccnn2)CC1 , output reported Percent Effect.
# output 0.112

# input Item CCc1nc(C2CCCN2C(=O)CCNS(C)(=O)=O)no1 (centres undefined) : provide Percent Effect
# output -2.77

# input Specify Percent Effect for CC1(C(=O)N2CCOCC2)CN(Cc2ccccn2)CCO1 (centres undefined) and stop.
# output -7.59

# input Give a short answer stating reported Percent Effect for COc1ccccc1Oc1ncccc1CNC(=O)C(C)N1CCCC1 (centres undefined) .
# output -3.48

# input Kindly indicate its recorded Percent Effect. Item: c1cncc(COCC2CN(Cc3ccco3)Cc3ccnn3C2)c1 (centres undefined)
# output -3

# input Supply reported Percent Effect belonging to this molecule: COc1ccc(C2OC(COc3ccccc3Br)=NN2C(C)=O)cc1 (centres undefined)
# output -1.41

# input Look up and report measured Percent Effect for this entry: O=c1[nH]c(CN(Cc2ccco2)C2CCCC2)nc2ccccc12
# output -2.15

# input Query Percent Effect for CN(Cc1nccs1)c1nc(-c2ccccn2)nc2c1CCNCC2
# output -3.65

# input Look up Percent Effect of COc1cc(CCC(C)O)c(OC)c2c1OCO2 (centres undefined) and report it.
# output -5.08

# input Please give measured Percent Effect of the following entry: CN(C)CC1CN(C(=O)NCc2ccccc2)Cc2nccn2C1 (centres undefined)
# output -2.59

# input Note down Percent Effect recorded for CC(=O)N1CCN(Cc2csc(-c3cnn(C)c3)n2)CC1
# output -5.28

# input Answer with the recorded Percent Effect of COc1ccc(C2=CCN(C(=O)CN(C)CC(C)C#N)CC2)cc1 (centres undefined) only.
# output -8.6

# input Determine its reported Percent Effect: Cc1nnc(CN2CCN(CC(O)c3cccc(F)c3)CC2)n1C (centres undefined)
# output -3.94

# input Tell me Percent Effect reported for Fc1ccc(-c2cnc(CN3CCCC3Cn3cccn3)o2)cc1 (centres undefined)
# output -4.06

# input Respond only with Percent Effect recorded for O=C(CCCOc1ccc(F)cc1F)N1CCCC1Cn1cccn1 (centres undefined)
# output -7.68

# input Using the record for CCN1CCCn2c(nc(CNC(=O)c3ccsc3)cc2=O)C1 , state its measured Percent Effect.
# output -4.67

# input Consider the molecule Cc1cc(C)n(C2CN(Cc3noc(-c4ccccc4)n3)C2)n1 . State its measured Percent Effect.
# output -4.45

# input Return value of Percent Effect for input Cc1nc(C2CCCN(C(=O)c3ccc(N4CCCC4)nc3)C2)no1 (centres undefined) , no commentary.
# output -3.94

# input Consider the molecule Cc1ccc(C(=O)N2CCC3(CC2)NC(=O)CC3c2ccccc2)cn1 (centres undefined) . State its measured Percent Effect.
# output -2.54

# input Determine its reported Percent Effect: CCCC(NC(=O)c1cc(C)n(C2CC2)c1C)c1nnn[nH]1 (centres undefined)
# output -6.85

# input Identify measured Percent Effect associated with Cc1ccc(CN2CCCC3(CCN(S(C)(=O)=O)C3)C2)o1 (centres undefined)
# output -3.67

Cited source for all entries: ChEMBL document CHEMBL3988442
